Below, each of the compounds is paired with its reported selectivity ratio value.
test: Selectivity index, ratio of CC50 for African green monkey Vero cells to MIC for Mycobacterium tuberculosis H37Rv; assay type: toxicity; conditions: read-out: Selectivity Index
# answer = number (no unit)

Worked examples, 7 compounds total:
O=C(CCc1cn(Cc2cn(Cc3ccc(F)cc3)nn2)c2ccccc12)N1CCN(S(=O)(=O)c2ccc(F)cc2)CC1 :: 1060
O=C(CCc1cn(Cc2cn(Cc3ccc(F)cc3)nn2)c2ccccc12)N1CCN(S(=O)(=O)c2ccccc2)CC1 :: 247
O=C(CCc1cn(Cc2cn(Cc3ccc(F)cc3)nn2)c2ccccc12)N1CCN(C(=O)c2cccnc2)CC1 :: 732
O=C(CCc1cn(Cc2cn(Cc3ccc(F)cc3)nn2)c2ccccc12)N1CCN(C(=O)c2ccc(F)cc2)CC1 :: 750
O=C(CCc1cn(Cc2ccc(F)cc2)c2ccccc12)N1CCN(C(=O)c2ccc(F)cc2)CC1 :: 198
COc1ccc(C(=O)N2CCN(C(=O)CCc3cn(Cc4cn(Cc5ccc(F)cc5)nn4)c4ccccc34)CC2)cc1 :: 916
O=C(CCc1cn(Cc2ccc(F)cc2)c2ccccc12)N1CCN(C(=O)c2ccc(Cl)cc2)CC1 :: 61.6

Now let's try a different one.
Prompt: Item "O=C(CCc1cn(Cc2cn(Cc3ccc(F)cc3)nn2)c2ccccc12)N1CCN(C(=O)c2ccncc2F)CC1" : provide selectivity ratio
Response: 283
